For each record, write down the corresponding GI50.
Tested on: OVCAR-3 ovarian
assay procedure: NCI tumour cell line growth inhibition, 48 h

Would you please look over these solved cases?
GI50 for CCC(C)[C@H](NC(=O)NC(=O)NC(=O)CI)C(=O)OC (stereo partly specified) is 2200 nM

The recorded GI50 for O=c1c2c(c3ccccc3n1-c1ccccc1)NC(=S)NC2c1ccc(Cl)cc1 (stereo unspecified) is 2860 nM

For this compound ( CCOC(=O)c1ccc2c(c1)nc(/C=C/c1ccc(Cl)cc1)n2-c1cc(C(C)(C)C)[nH]n1 ), measured GI50 is 2860 nM

For O=C1C(=O)c2ccccc2C(O)=C1CCCc1ccc(C2CCCC2)cc1 the compound record lists GI50 as 4910 nM

compound NCCCCCCCCCCCn1c2c(c3ccccc3c1=O)C(=O)c1ccccc1-2 , GI50 observed: 2100 nM

According to the records, this compound O=c1c2cccc(F)c2sc2c(N3CCNCC3)nc3ccccc3c12 displays GI50 of 1590 nM

Per the record, CC(=O)[CH-]C(=O)c1ccccc1.CC(=O)[CH-]C(=O)c1ccccc1.CC[C@H](/C=C/C(C)[C@H]1CCC2[C@@H]3CC=C4C[C@@H]([O-])CC[C@]4(C)C3CC[C@@]21C)C(C)C.CC[O-].[Ti+4] (stereo partly specified) has GI50 of > 100000 nM

// GI50 lookup, compound = Clc1nc(Cl)c2c3c(sc2n1)CCCC3 , result: 3300 nM

GI50 measured on C[N+](C)(CCCCCC[N+](C)(C)CCCN1C(=O)c2cc3ccccc3cc2C1=O)CCCN1C(=O)c2cc3ccccc3cc2C1=O = > 37500 nM

compound CO[C@]12C=C/C(=C(/C(=O)OCc3cccnc3)C(=O)CCCCCCCC[C@@]3(OC)C=C/C(=C(/C(=O)OCc4cccnc4)C(=O)CCCCCCCC1)O3)O2 , GI50 observed: 1160 nM

Could you tell me GI50 for each of these compounds? They are listed below.
1. COC(=O)C[CH2][Ge]([CH3])([CH3])[S]c1ccccc1
2. CCN(CC)CCOc1ccc(/C=C2\C[C@H]3[C@H]4CC=C5C[C@@H](O)CC[C@]5(C)[C@H]4CC[C@]3(C)[C@H]2O)cc1OC
3. COc1cc(/C=C2\Oc3cc(OCCCN4CCCC4)ccc3C2=O)cc(OC)c1
4. C=C1CCC2C3(C)COC(c4c(OC)cccc4OC)OC3CCC2(C)C1C/C=C1/C(=O)OCC1O (stereo unspecified)
5. Nc1nc2c(nnn2C2OC(CO)C(O)C2O)c(=O)[nH]1 (stereo unspecified)
6. NCCCn1c2c(c3ccc([N+](=O)[O-])cc3c1=O)C(=O)c1cc(-c3ccccc3)ccc1-2

*A*
29900 nM
7960 nM
2740 nM
1940 nM
1170 nM
1650 nM
